Overview of reported Signal/Blank across a group of binders:
System: T1, Recombinant Human DLL4 (R&D Systems Cat#1506-D4/CF) (human, UniProt Q9NR61 27-524)
T1 construct: Bought recombinant protein; also called delta-like protein 4; rHuman DLL4
Test Description: ECL multispot (MSD) binding assay, DLL4 signal over blank spot; Fab concentration not given
// keep it numeric: no unit symbol after the value

Worked examples, 2 binders total:
>>> reported_result("Fab VH1-46_IGHD6-6*01_IGHJ1*01 S102A/S103P/S104F/H111F (APFF) & L6_IGKJ1*01 S28P (Fab, V domains shown, Fab expressed in E. coli: VH joined to CH1 (Plasmid A, His6 and Flag tags), VL joined to kappa CL (Plasmid C); also called APFF S28P) VH: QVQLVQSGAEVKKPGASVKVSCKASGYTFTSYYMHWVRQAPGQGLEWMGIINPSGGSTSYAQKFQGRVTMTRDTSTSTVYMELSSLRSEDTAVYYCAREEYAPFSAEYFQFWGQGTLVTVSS VL: EIVLTQSPATLSLSPGERATLSCRASQPVSSYLAWYQQKPGQAPRLLIYDASNRATGIPARFSGSGSGTDFTLTISSLEPEDFAVYYCQQRSNWPPWTFGQGTKVEIKR")
454
>>> reported_result("Fab VH1-46_IGHD6-6*01_IGHJ1*01 S102A/S103P/S104F/H111F (APFF) & L6_IGKJ1*01 S30Q (Fab, V domains shown, Fab expressed in E. coli: VH joined to CH1 (Plasmid A, His6 and Flag tags), VL joined to kappa CL (Plasmid C); also called APFF S30Q) VH: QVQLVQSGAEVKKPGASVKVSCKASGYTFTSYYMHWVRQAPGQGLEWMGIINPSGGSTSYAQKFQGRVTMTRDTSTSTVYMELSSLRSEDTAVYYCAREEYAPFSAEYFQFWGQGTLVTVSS VL: EIVLTQSPATLSLSPGERATLSCRASQSVQSYLAWYQQKPGQAPRLLIYDASNRATGIPARFSGSGSGTDFTLTISSLEPEDFAVYYCQQRSNWPPWTFGQGTKVEIKR")
1020

Continue with the binder presented below.
Prompt: Record request: Signal/Blank value, item Fab VH1-46_IGHD6-6*01_IGHJ1*01 S102A/S103P/S104F/H111F (APFF) & L6_IGKJ1*01 S30P (Fab, V domains shown, Fab expressed in E. coli: VH joined to CH1 (Plasmid A, His6 and Flag tags), VL joined to kappa CL (Plasmid C); also called APFF S30P) VH: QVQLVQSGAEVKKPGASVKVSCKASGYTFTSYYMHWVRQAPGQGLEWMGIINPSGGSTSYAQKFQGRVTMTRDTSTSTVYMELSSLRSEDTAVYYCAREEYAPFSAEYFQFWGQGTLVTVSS VL: EIVLTQSPATLSLSPGERATLSCRASQSVPSYLAWYQQKPGQAPRLLIYDASNRATGIPARFSGSGSGTDFTLTISSLEPEDFAVYYCQQRSNWPPWTFGQGTKVEIKR
Response: 4.4
